- Tested on: human growth hormone receptor mRNA
- protocol.notes: Inhibition of human growth hormone receptor mRNA levels by antisense oligonucleotides, quantitative real-time PCR, MCF7 cells
- Assay type: cell-based
- Set-up: concentration or dose not given beside the values
- cond: averages from three experiments
e = 2'-O-(2-methoxyethyl) (MOE); d = 2'-deoxy (DNA)
reported.property: % INHIB (inhibitory effect on hGHR mRNA levels) (%)
Just the number please, in %, no unit attached.

# example entries with known answers
tcagggcattctttccattc (TCAGGGCATTCTTTCCATTC; chemistry not given here) [ISIS 227452]    79
272320 (antisense AGATTGTGTTCACCTCCTCT; sugars from the 5' end e5 d10 e5, all phosphorothioate, methylation of C not given here) [compound 272320]    70
272352 (antisense CCAAAATGACATTCTGAGAC; sugars from the 5' end e5 d10 e5, all phosphorothioate, methylation of C not given here) [compound 272352]    77
272330 (antisense GATGCACTTTTTGGCATCTG; sugars from the 5' end e5 d10 e5, all phosphorothioate, methylation of C not given here) [compound 272330]    47

Given the entry 272308 (antisense GCTGTATGGGTCCTAGGTTC; sugars from the 5' end e5 d10 e5, all phosphorothioate, methylation of C not given here) [compound 272308] , report its measured % INHIB (inhibitory effect on hGHR mRNA levels).
57

* * *

Property: % INHIB (inhibitory effect on hGHR mRNA levels); scope: individual substances
- System: human growth hormone receptor mRNA
- protocol.notes: Inhibition of human growth hormone receptor mRNA levels by antisense oligonucleotides, quantitative real-time PCR, MCF7 cells
- Assay type: cell-based
- Design: concentration or dose not given beside the values
- cond: averages from three experiments
e = 2'-O-(2-methoxyethyl) (MOE); d = 2'-deoxy (DNA)
Just the number please, in %, no unit attached.

# example entries with known answers
272309 (antisense TAACAGCTGTTTTCCCCAGC; sugars from the 5' end e5 d10 e5, all phosphorothioate, methylation of C not given here) [compound 272309]    85
227483 (antisense AGGCTTTCTGTGGTGATGTA; sugars from the 5' end e5 d10 e5, all phosphorothioate, methylation of C not given here) [compound 227483]    75

Let us move to another entry and its % INHIB (inhibitory effect on hGHR mRNA levels).
Given the entry 272304 (antisense TGCTAAGGATAGCTGCTGTG; sugars from the 5' end e5 d10 e5, all phosphorothioate, methylation of C not given here) [compound 272304] , report its measured % INHIB (inhibitory effect on hGHR mRNA levels).
48

* * *

Property: % INHIB (inhibitory effect on hGHR mRNA levels); scope: individual substances
- Test system: human growth hormone receptor mRNA
- protocol.notes: Inhibition of human growth hormone receptor mRNA levels by antisense oligonucleotides, quantitative real-time PCR, MCF7 cells
- Assay type: cell-based
- Design: concentration or dose not given beside the values
- cond: averages from three experiments
e = 2'-O-(2-methoxyethyl) (MOE); d = 2'-deoxy (DNA)
Just the number please, in %, no unit attached.

# example entries with known answers
272358 (antisense TCTCCAGATAGAATCTAAAC; sugars from the 5' end e5 d10 e5, all phosphorothioate, methylation of C not given here) [compound 272358]    53
272324 (antisense TATGTCATTGGCATTGAAAT; sugars from the 5' end e5 d10 e5, all phosphorothioate, methylation of C not given here) [compound 272324]    53

Let us move to another entry and its % INHIB (inhibitory effect on hGHR mRNA levels).
Given the entry 272353 (antisense ATAATGGCTTATGTGGCCAC; sugars from the 5' end e5 d10 e5, all phosphorothioate, methylation of C not given here) [compound 272353] , report its measured % INHIB (inhibitory effect on hGHR mRNA levels).
72

Data origin: patent US20160129089A1
